The reported numbers originate from the supplement of paper PMC10627819.

System: B. subtilis 168
run_description: Bliss interaction score (quartile over a dose matrix) (fitness difference); higher = more antagonism (negative = synergy)
experimental_conditions: main component drawn
Is Bliss interaction score at least 0.05? Then yes. If not, no.

Q) Identify whether the reported Bliss interaction score of the following compound is 0.05 or greater: CNC(C)C1CCC(N)C(OC2C(N)CC(N)C(OC3OCC(C)(O)C(NC)C3O)C2O)O1 (configuration not stated) [Gentamicin] + CN[C@@H]1[C@H](O)[C@H](NC)[C@H]2O[C@@]3(O)C(=O)C[C@@H](C)O[C@H]3O[C@@H]2[C@H]1O [Spectinomycin]
A) yes

Q) API: above_or_equal(metric=Bliss interaction score, cutoff=0.05) for item CNC(C)C1CCC(N)C(OC2C(N)CC(N)C(OC3OCC(C)(O)C(NC)C3O)C2O)O1 (configuration not stated) [Gentamicin] + O=C1CN(/N=C/c2ccc([N+](=O)[O-])o2)C(=O)N1 [Nitrofurantoin]
A) no

Q) Textbook exercise: given the entry CNC(C)C1CCC(N)C(OC2C(N)CC(N)C(OC3OCC(C)(O)C(NC)C3O)C2O)O1 (configuration not stated) [Gentamicin] + Oc1cc(Cl)ccc1Oc1ccc(Cl)cc1Cl [Triclosan] , state whether its Bliss interaction score is greater than or equal to 0.05.
A) no

Q) I'd appreciate it if you could say whether CNC(C)C1CCC(N)C(OC2C(N)CC(N)C(OC3OCC(C)(O)C(NC)C3O)C2O)O1 (configuration not stated) [Gentamicin] + C/C(=C\C(=O)OCCCCCCCCC(=O)O)C[C@@H]1OC[C@H](C[C@@H]2O[C@H]2[C@@H](C)[C@H](C)O)[C@@H](O)[C@H]1O [Pseudomonic acid] has Bliss interaction score at least equal to 0.05.
A) no

----------
In this section, each of the molecules is paired with its reported MIC.
Test system: B. subtilis 168
Response body: numeric value in µg/mL, unit text excluded.

Worked examples follow.
# structure_as_smiles, study_system, result_value
rows = [
    ("CN(N=O)C(=O)N[C@@H](C=O)[C@@H](O)[C@H](O)[C@H](O)CO", "B. subtilis 168", 0.7),
    ("CC1=C\\[C@@H](O)CC(=O)Cc2nc(co2)C(=O)N2CCC=C2C(=O)O[C@H](C(C)C)[C@H](C)/C=C/C(=O)NC\\C=C\\1", "B. subtilis 168", 0.5),
    ("O=C(O)[C@H]1/C(=C/CO)O[C@@H]2CC(=O)N21", "B. subtilis 168", 8),
]

Please examine the following record next.
Q) Item Cn1c2cccc(=O)c-2nc2ccccc21 has what recorded MIC?
A) 5

----------
Tested on: B. subtilis 168
run_description: Bliss interaction score (quartile over a dose matrix) (fitness difference); higher = more antagonism (negative = synergy)
endpoint: Bliss interaction score
# answer = number (no unit)

Q) GET /values?readout=Bliss interaction score&item= O=C(O)[C@H]1/C(=C/CO)O[C@@H]2CC(=O)N21 [Clavulanic] + CN[C@H](CC(C)C)C(=O)N[C@H]1C(=O)N[C@@H](CC(N)=O)C(=O)N[C@H]2C(=O)N[C@H]3C(=O)N[C@H](C(=O)N[C@H](C(=O)O)c4cc(O)cc(O)c4-c4cc3ccc4O)[C@H](O[C@H]3C[C@](C)(N)[C@@H](O)[C@H](C)O3)c3ccc(c(Cl)c3)Oc3cc2cc(c3O[C@@H]2O[C@H](CO)[C@@H](O)[C@H](O)[C@H]2O[C@H]2C[C@](C)(NCc3ccc(-c4ccc(Cl)cc4)cc3)[C@@H](O)[C@H](C)O2)Oc2ccc(cc2Cl)[C@H]1O [Oritavancin]
A) -0.0388

----------
System: S. pneumoniae D39V
run_description: Bliss interaction score (quartile over a dose matrix) (fitness difference); higher = more antagonism (negative = synergy)
// N strictly below -0.04 in Bliss interaction score; Y otherwise

Before answering, review these 4 worked examples.
# compound, assigned_label
data = [
    ("Clc1ccc(COC(Cn2ccnc2)c2ccc(Cl)cc2Cl)c(Cl)c1 (stereo not drawn) [Miconazole] + C/C(=C\\C(=O)OCCCCCCCCC(=O)O)C[C@@H]1OC[C@H](C[C@@H]2O[C@H]2[C@@H](C)[C@H](C)O)[C@@H](O)[C@H]1O [Pseudomonic acid]", "Y"),
    ("Cc1onc(-c2ccccc2)c1C(=O)N[C@@H]1C(=O)N2[C@@H]1SC(C)(C)[C@@H]2C(=O)O [Oxacillin] + CN[C@@H]1[C@H](O)[C@H](NC)[C@H]2O[C@@]3(O)C(=O)C[C@@H](C)O[C@H]3O[C@@H]2[C@H]1O [Spectinomycin]", "Y"),
    ("Cc1cc(NS(=O)(=O)c2ccc(N)cc2)no1 [Sulfamethoxazol] + CC[C@H]1OC(=O)[C@H](C)C(=O)[C@H](C)[C@@H](O[C@@H]2O[C@H](C)C[C@H](N(C)C)[C@H]2O)[C@](C)(OC)C[C@@H](C)C(=O)[C@H](C)[C@H]2N(CCCCn3cnc(-c4cccnc4)c3)C(=O)O[C@]12C [Telithromycin]", "N"),
    ("Clc1ccc(COC(Cn2ccnc2)c2ccc(Cl)cc2Cl)c(Cl)c1 (stereo not drawn) [Miconazole] + COc1cc(Cc2cnc(N)nc2N)cc(OC)c1OC [Trimethoprim]", "N"),
]

Q) Quick check, Bliss interaction score >= -0.04? O=C(O)[C@H]1/C(=C/CO)O[C@@H]2CC(=O)N21 [Clavulanic] + CC[C@H]1OC(=O)[C@H](C)C(=O)[C@H](C)[C@@H](O[C@@H]2O[C@H](C)C[C@H](N(C)C)[C@H]2O)[C@](C)(OC)C[C@@H](C)C(=O)[C@H](C)[C@H]2N(CCCCn3cnc(-c4cccnc4)c3)C(=O)O[C@]12C [Telithromycin]
A) N

Q) Hello, I need to know if CC1=C(C(=O)O)N2C(=O)[C@@H](NC(=O)[C@H](N)c3ccccc3)[C@H]2SC1 [Cephalexin] + CCC[C@@H]1C[C@@H](C(=O)N[C@@H]([C@H]2O[C@H](SC)[C@H](O)[C@@H](O)[C@H]2O)[C@@H](C)O)N(C)C1 [Lincomycin] has measured Bliss interaction score not below -0.04. Thanks!
A) Y

Q) Is it the case that Cc1onc(-c2ccccc2)c1C(=O)N[C@@H]1C(=O)N2[C@@H]1SC(C)(C)[C@@H]2C(=O)O [Oxacillin] + C[n+]1ccc(-c2cc[n+](C)cc2)cc1 [Paraquat] has Bliss interaction score reaching or exceeding -0.04?
A) Y

Q) State whether the measured Bliss interaction score reaches -0.04, counting equality as reaching it, for O=C(O)[C@H]1/C(=C/CO)O[C@@H]2CC(=O)N21 [Clavulanic] + O=C1CN(/N=C/c2ccc([N+](=O)[O-])o2)C(=O)N1 [Nitrofurantoin]
A) Y

----------
System: B. subtilis 168
run_description: Bliss interaction score (quartile over a dose matrix) (fitness difference); higher = more antagonism (negative = synergy)
endpoint: Bliss interaction score
Respond with the number and no other words.

Answered examples (2):
# compound, Bliss interaction score
data = [
    ("CC[C@H]1OC(=O)[C@H](C)[C@@H](O[C@H]2C[C@@](C)(OC)[C@@H](O)[C@H](C)O2)[C@H](C)[C@@H](O[C@@H]2O[C@H](C)C[C@H](N(C)C)[C@H]2O)[C@](C)(O)C[C@@H](C)CN(C)[C@H](C)[C@@H](O)[C@]1(C)O [Azithromycin] + COc1cc(Cc2cnc(N)nc2N)cc(OC)c1OC [Trimethoprim]", -0.194),
    ("CC[C@H]1OC(=O)[C@H](C)[C@@H](O[C@H]2C[C@@](C)(OC)[C@@H](O)[C@H](C)O2)[C@H](C)[C@@H](O[C@@H]2O[C@H](C)C[C@H](N(C)C)[C@H]2O)[C@](C)(O)C[C@@H](C)CN(C)[C@H](C)[C@@H](O)[C@]1(C)O [Azithromycin] + CN[C@@H]1[C@H](O)[C@H](NC)[C@H]2O[C@@]3(O)C(=O)C[C@@H](C)O[C@H]3O[C@@H]2[C@H]1O [Spectinomycin]", -0.0884),
]

Attention now shifts to the item below.
Q) Name the reported Bliss interaction score value associated with the compound Clc1ccc(COC(Cn2ccnc2)c2ccc(Cl)cc2Cl)c(Cl)c1 (stereo not drawn) [Miconazole] + CN[C@@H]1[C@H](O)[C@H](NC)[C@H]2O[C@@]3(O)C(=O)C[C@@H](C)O[C@H]3O[C@@H]2[C@H]1O [Spectinomycin]
A) 0.0664

----------
Test system: S. aureus Newman
run_description: Bliss interaction score (quartile over a dose matrix) (fitness difference); higher = more antagonism (negative = synergy)
Cut-off 0.05 on Bliss interaction score, inclusive. At or above means satisfied; below means not satisfied.

# compound, assigned_label
records = [
    ("O=C(O)[C@H]1/C(=C/CO)O[C@@H]2CC(=O)N21 [Clavulanic] + CO[C@@H]1[C@@H](OC(N)=O)[C@@H](O)[C@H](Oc2ccc3c(O)c(NC(=O)c4ccc(O)c(CC=C(C)C)c4)c(=O)oc3c2C)OC1(C)C [Novobiocin]", "satisfied"),
]

Q) Given CC[C@H]1OC(=O)[C@H](C)[C@@H](O[C@H]2C[C@@](C)(OC)[C@@H](O)[C@H](C)O2)[C@H](C)[C@@H](O[C@@H]2O[C@H](C)C[C@H](N(C)C)[C@H]2O)[C@](C)(O)C[C@@H](C)CN(C)[C@H](C)[C@@H](O)[C@]1(C)O [Azithromycin] + Cc1cc(NS(=O)(=O)c2ccc(N)cc2)no1 [Sulfamethoxazol] , state whether its Bliss interaction score is at least 0.05.
A) not satisfied

Q) Is Bliss interaction score for Cc1cc(NS(=O)(=O)c2ccc(N)cc2)no1 [Sulfamethoxazol] + CC[C@H]1OC(=O)[C@H](C)C(=O)[C@H](C)[C@@H](O[C@@H]2O[C@H](C)C[C@H](N(C)C)[C@H]2O)[C@](C)(OC)C[C@@H](C)C(=O)[C@H](C)[C@H]2N(CCCCn3cnc(-c4cccnc4)c3)C(=O)O[C@]12C [Telithromycin] at or above 0.05?
A) not satisfied

Q) Assess whether reported Bliss interaction score for Cc1onc(-c2ccccc2)c1C(=O)N[C@@H]1C(=O)N2[C@@H]1SC(C)(C)[C@@H]2C(=O)O [Oxacillin] + CC1=C\[C@@H](O)CC(=O)Cc2nc(co2)C(=O)N2CCC=C2C(=O)O[C@H](C(C)C)[C@H](C)/C=C/C(=O)NC\C=C\1 [Virginiamycin M1] sits at 0.05 or higher.
A) satisfied

Q) Does the compound Cc1onc(-c2ccccc2)c1C(=O)N[C@@H]1C(=O)N2[C@@H]1SC(C)(C)[C@@H]2C(=O)O [Oxacillin] + CN[C@@H]1[C@H](O[C@H]2[C@H](O[C@H]3[C@H](O)[C@@H](O)[C@H](N=C(N)N)[C@@H](O)[C@@H]3N=C(N)N)O[C@@H](C)[C@]2(O)C=O)O[C@@H](CO)[C@H](O)[C@H]1O [Streptomycin] have recorded Bliss interaction score that is 0.05 or more?
A) not satisfied

Q) Decide: is the reported value of Bliss interaction score for CC[C@H]1OC(=O)[C@H](C)[C@@H](O[C@H]2C[C@@](C)(OC)[C@@H](O)[C@H](C)O2)[C@H](C)[C@@H](O[C@@H]2O[C@H](C)C[C@H](N(C)C)[C@H]2O)[C@](C)(O)C[C@@H](C)CN(C)[C@H](C)[C@@H](O)[C@]1(C)O [Azithromycin] + COc1cccc2c1C(=O)c1c(O)c3c(c(O)c1C2=O)C[C@@](O)(C(=O)CO)C[C@@H]3O[C@H]1C[C@H](N)[C@H](O)[C@H](C)O1 [Doxorubicin] equal to or greater than 0.05?
A) not satisfied

Q) Is it the case that Clc1ccc(COC(Cn2ccnc2)c2ccc(Cl)cc2Cl)c(Cl)c1 (configuration not stated) [Miconazole] + COc1c(N2C[C@@H]3CCCN[C@@H]3C2)c(F)cc2c(=O)c(C(=O)O)cn(C3CC3)c12 [Moxifloxacin] has Bliss interaction score reaching or exceeding 0.05?
A) satisfied
